Target: IL-23R-expressing DB cells (Homo sapiens, UniProt Q5VWK5)
Sequence (Q5VWK5 24-629 limits assumed): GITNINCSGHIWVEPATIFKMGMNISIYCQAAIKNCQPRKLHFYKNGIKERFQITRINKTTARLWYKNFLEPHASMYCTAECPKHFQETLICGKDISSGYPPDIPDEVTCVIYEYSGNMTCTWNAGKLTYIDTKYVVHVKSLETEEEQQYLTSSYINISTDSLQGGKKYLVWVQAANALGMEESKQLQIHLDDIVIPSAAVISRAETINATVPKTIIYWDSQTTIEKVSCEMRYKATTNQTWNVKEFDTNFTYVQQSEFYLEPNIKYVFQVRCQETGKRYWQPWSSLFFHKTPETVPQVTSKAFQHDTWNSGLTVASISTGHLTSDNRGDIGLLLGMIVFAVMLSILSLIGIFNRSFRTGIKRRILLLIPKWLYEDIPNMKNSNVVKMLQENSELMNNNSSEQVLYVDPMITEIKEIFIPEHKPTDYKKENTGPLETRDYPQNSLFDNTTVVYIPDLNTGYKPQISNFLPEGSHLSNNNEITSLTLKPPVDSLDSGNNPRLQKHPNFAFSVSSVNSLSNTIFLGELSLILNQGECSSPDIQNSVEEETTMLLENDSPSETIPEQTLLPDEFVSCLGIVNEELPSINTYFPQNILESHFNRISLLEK
Assay: DB cells IL23R pSTAT3 cell assay (pStat3HTRF)
Conditions: DB cells stimulated with IL-23 0.5 nM, 30 minutes, phospho-STAT3 in cell lysates; read-out: pStat3 HTRF
Bridge positions count the residues as written; N and C are the ends. Square brackets hold non-standard residues; d marks the D form. Peptide text beside a SMILES is read from it. Trp(7-OMe) = COc1cccc2c(C[C@H](N)C(=O)O)c[nH]c12; His(π-Bom) = N[C@@H](Cc1cncn1COCc1ccccc1)C(=O)O; Trp(7-Me) = Cc1cccc2c(C[C@H](N)C(=O)O)c[nH]c12; 2Nal = N[C@@H](Cc1ccc2ccccc2c1)C(=O)O; AEF = NCCOc1ccc(C[C@H](N)C(=O)O)cc1; Cit = NC(=O)NCCC[C@H](N)C(=O)O; Pen = CC(C)(S)[C@H](N)C(=O)O; αMeK = C[C@](N)(CCCCN)C(=O)O
This section presents molecules with their documented IC50 values.

**Query** So what does the record say about IC50 for CC(=O)NCCCC[C@@H]1NC(=O)[C@H](Cc2c[nH]c3c(C)cccc23)NC(=O)[C@H]([C@@H](C)O)NC(=O)[C@H](CC(N)=O)NC(=O)[C@@H](NC(C)=O)C(C)(C)SSC(C)(C)[C@@H](C(=O)N[C@@H](Cc2cncn2COCc2ccccc2)C(=O)N[C@@H](Cc2ccc3ccccc3c2)C(=O)N[C@@](C)(CCCCN)C(=O)N[C@@H](CCCCNC(C)=O)C(=O)N[C@@H](CC(N)=O)C(=O)N[C@H](CC(C)C)C(N)=O)NC1=O [compound 291] (Ac-[Pen]NT[Trp(7-Me)]K(Ac)[Pen][His(π-Bom)][2Nal][αMeK]K(Ac)N[dL]-NH2; disulfide 1-6) ?
**Result** > 1 µM

Kindly review the next molecule as well.
**Query** Reported IC50, molecule COc1cccc2c(C[C@@H]3NC(=O)[C@H]([C@@H](C)O)NC(=O)[C@H](CC(N)=O)NC(=O)[C@@H](NC(C)=O)C(C)(C)SSC(C)(C)[C@@H](C(=O)N[C@@H](Cc4ccc(OCCN)cc4)C(=O)N[C@@H](Cc4ccc5ccccc5c4)C(=O)N[C@@](C)(CCCCN)C(=O)N[C@@H](CCCCNC(C)=O)C(=O)N[C@@H](CC(N)=O)C(=O)N[C@H](CCCCN)C(N)=O)NC(=O)[C@H](CCCNC(N)=O)NC3=O)c[nH]c12 [compound 300] (Ac-[Pen]NT[Trp(7-OMe)][Cit][Pen][AEF][2Nal][αMeK]K(Ac)N[dK]-NH2; disulfide 1-6) : ____
**Result** > 1 µM

Where do the numbers come from? From patent US11041000B2.
